System: KM12 colon
Assay: NCI tumour cell line growth inhibition, 48 h
Below, each entry is listed with its recorded TGI.
Quick reminder: number only, in µM, skip the unit.

{"compound-string": "COc1cc(OC)c(/C=C/c2ccc3ccccc3[n+]2C)c(OC)c1", "tested-on": "KM12 colon", "parameter-measured": "TGI", "observed-result": 1.99}

Okay, now this compound:
Ask | What does the record list as TGI for CC[N+](CC)=c1ccc2nc3c(cc(N)c4ccccc43)oc-2c1 ?
Reply | 0.666

====

Tested on: SN12C renal
Assay: NCI tumour cell line growth inhibition, 48 h
Where a SMILES comes first, the peptide text is derived from it. [ ]: non-standard residue; d: D form. The star is where a group is joined. Cbz = O=C(OCc1ccccc1)*; Boc = CC(C)(C)OC(=O)*; Aib = CC(C)(N)C(=O)O; OBn = c1ccc(CO*)cc1; OtBu = CC(C)(C)O*; βAla = NCCC(=O)O
parameter-measured: TGI

{"molecule": "CC(C)(C)OC(=O)CC(NC(=O)OC(C)(C)C)C(=O)NC(CCCCNC(=O)OCc1ccccc1)C(=O)NC(C)(C)C(=O)NCCC(=O)OCc1ccccc1 (centres undefined) (Boc-D(OtBu)K(Cbz)[Aib][βAla]-OBn; configuration not given here)", "TGI": "> 100 µM"}

Ask | Any idea what its TGI is? The molecule is NC(=O)COc1ccccc1
Reply | > 100 µM

Ask | TGI for Cc1c(CCCl)c(=O)n2c([nH]c3ccccc32)c1C#N ?
Reply | 2.66 µM
